tested on: L1210 leukemia; experiment: NCI 3LE31, i.p.-implanted L1210 lymphoid leukemia; assay type: in vivo, DBA/2 mice; conditions: Mus musculus, L1210, ip, 200 mg/kg i.p. daily for nine days; read-out: T/C % (survival time treated/control)
Recorded response vs control in vivo at 200 mg/kg, one value per entry.
Numeric answer only, unit % assumed.

As a guide, the following entries are already answered.
{"molecule": "COc1ccc(NC(=O)c2c(O)[nH]c(=O)[nH]c2=O)cc1 [Control F]", "value-units": "%", "response vs control in vivo at 200 mg/kg": 117}
{"molecule": "Cn1c(=S)[nH]c(O)c(C(=O)Nc2cccc([N+](=O)[O-])c2)c1=O [Control I]", "value-units": "%", "response vs control in vivo at 200 mg/kg": 112}
{"molecule": "O=c1[nH]c(O)c(C(=S)Nc2ccccc2)c(=O)[nH]1 [Control X]", "value-units": "%", "response vs control in vivo at 200 mg/kg": 104}

Exercise: Provide response vs control in vivo at 200 mg/kg value for the following molecule: COc1ccc(C)cc1NC(=O)c1c(O)[nH]c(=S)[nH]c1=O [Example 10]
Solution: 113

Exercise: Provide response vs control in vivo at 200 mg/kg value for the following molecule: CC(C)c1cccc(C(C)C)c1NC(=O)c1c(O)n(-c2ccccc2)c(=S)n(-c2ccccc2)c1=O [Control U]
Solution: 112

* * *

test system: L1210 leukemia; assay: NCI 3LE31, i.p.-implanted L1210 lymphoid leukemia; format: in vivo, DBA/2 mice; conditions: 100 mg/kg i.p. daily for nine days
quantity-name: T/C % (survival time treated/control)

As a guide, the following entries are already answered.
{"compound": "Cn1c(O)c(C(=O)Nc2ccccc2)c(=O)n(C)c1=S [Control L]", "system-name": "L1210 leukemia", "T/C % (survival time treated/control)": "Toxic"}
{"compound": "COC(=O)c1ccccc1NC(=O)c1c(O)n(-c2ccccc2)c(=S)n(-c2ccccc2)c1=O [Control V]", "system-name": "L1210 leukemia", "T/C % (survival time treated/control)": "Toxic"}
{"compound": "O=C(Nc1ccccc1)c1c(O)[nH]c(=S)n(-c2ccccc2)c1=O [Control P]", "system-name": "L1210 leukemia", "T/C % (survival time treated/control)": "Toxic"}
{"compound": "Cc1ccc(C)c(NC(=O)c2c(O)n(C)c(=S)n(C)c2=O)c1 [Control N]", "system-name": "L1210 leukemia", "T/C % (survival time treated/control)": "Toxic"}
{"compound": "Cn1c(O)c(C(=O)Nc2ccc(Cl)cc2)c(=O)n(C)c1=S [Control M]", "system-name": "L1210 leukemia", "T/C % (survival time treated/control)": "Toxic"}

Exercise: Provide T/C % (survival time treated/control) value for the following compound: O=C(Nc1ccc(Cl)cc1)c1c(O)[nH]c(=S)n(-c2ccccc2)c1=O [Control Q]
Solution: 112%

Exercise: Provide T/C % (survival time treated/control) value for the following compound: Cn1c(=S)[nH]c(O)c(C(=O)Nc2cccc([N+](=O)[O-])c2)c1=O [Control J]
Solution: 104%

Exercise: Provide T/C % (survival time treated/control) value for the following compound: O=C(Nc1ccc(Cl)cc1)c1c(O)[nH]c(=S)n(-c2ccccc2)c1=O [Control R]
Solution: 88%

Exercise: Provide T/C % (survival time treated/control) value for the following compound: Cn1c(=S)[nH]c(O)c(C(=O)Nc2ccccc2)c1=O [Control H]
Solution: Toxic
